I'd appreciate it if you could supply IC50 values for the items below.
- Test system: 186277-243-T-J2-PDC complex spheroid growth;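 further: spheroids exposed to compounds for seven days before the viability read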
- Assay Details: Anticancer human tumor 186277-243-T-J2-PDC patient-derived colon adenocarcinoma cell line growth inhibition [AhR]
- Run Parameters: curve of first compound; second compound 0.1 µM
Entry rule: numbers only, all in µM.

Input: Bench note: what IC50 did COc1ccc([C@@H](O)c2cc(-c3ncnc4cc(N5CCOCC5)ccc34)c(F)cc2Cl)nn1 + CC(CO)NC(=O)c1cc(-c2ccc(Cl)cc2)nn(-c2cnn(C)c2)c1=O show?
Output: 3.23

Input: // repeat for O=C(c1cc(Cc2n[nH]c(=O)c3ccccc23)ccc1F)N1CCN(C(=O)C2CC2)CC1 + CC(CO)NC(=O)c1cc(-c2ccc(Cl)cc2)nn(-c2cnn(C)c2)c1=O and report
Output: 6.18

Input: // repeat for NS(=O)(=O)OCC1CC(n2ccc3c(NC4CCc5ccccc54)ncnc32)CC1O (configuration not stated) + Cc1cncc(-c2nc(NCCc3c[nH]c4ccccc34)c3ncn(C(C)C)c3n2)c1 and report
Output: 0.693

Input: // repeat for CC1COCCN1c1cc(-c2ccnn2C)c2ccnc(-c3ccn[nH]3)c2n1 (configuration not stated) + CC(CO)NC(=O)c1cc(-c2ccc(Cl)cc2)nn(-c2cnn(C)c2)c1=O and report
Output: 0.0243

Input: // repeat for O=C(C=Cc1cccc(S(=O)(=O)Nc2ccccc2)c1)NO + CC(CO)NC(=O)c1cc(-c2ccc(Cl)cc2)nn(-c2cnn(C)c2)c1=O and report
Output: 0.324

Input: // repeat for CC1(C)CCC(CN2CCN(c3ccc(C(=O)NS(=O)(=O)c4ccc(NCC5CCOCC5)c([N+](=O)[O-])c4)c(Oc4cnc5[nH]ccc5c4)c3)CC2)=C(c2ccc(Cl)cc2)C1 + Cc1ccccc1N=Nc1ccc(NC(=O)c2ccnn2C)c(C)c1 and report
Output: 7.46
